Reference for the values: patent US10227357B2

Molecular target: c-kit kinase (Homo sapiens, UniProt P10721)
Construct: The c-kit (or kinase domain thereof) is an active kinase in AlphaScreen; poly-Histidine tag (in-house protein only) (cleaved yes); host or cells: E. coli BL21(DE3)RIL, co-expressed with PTP1B
Sequence (P10721 26-976): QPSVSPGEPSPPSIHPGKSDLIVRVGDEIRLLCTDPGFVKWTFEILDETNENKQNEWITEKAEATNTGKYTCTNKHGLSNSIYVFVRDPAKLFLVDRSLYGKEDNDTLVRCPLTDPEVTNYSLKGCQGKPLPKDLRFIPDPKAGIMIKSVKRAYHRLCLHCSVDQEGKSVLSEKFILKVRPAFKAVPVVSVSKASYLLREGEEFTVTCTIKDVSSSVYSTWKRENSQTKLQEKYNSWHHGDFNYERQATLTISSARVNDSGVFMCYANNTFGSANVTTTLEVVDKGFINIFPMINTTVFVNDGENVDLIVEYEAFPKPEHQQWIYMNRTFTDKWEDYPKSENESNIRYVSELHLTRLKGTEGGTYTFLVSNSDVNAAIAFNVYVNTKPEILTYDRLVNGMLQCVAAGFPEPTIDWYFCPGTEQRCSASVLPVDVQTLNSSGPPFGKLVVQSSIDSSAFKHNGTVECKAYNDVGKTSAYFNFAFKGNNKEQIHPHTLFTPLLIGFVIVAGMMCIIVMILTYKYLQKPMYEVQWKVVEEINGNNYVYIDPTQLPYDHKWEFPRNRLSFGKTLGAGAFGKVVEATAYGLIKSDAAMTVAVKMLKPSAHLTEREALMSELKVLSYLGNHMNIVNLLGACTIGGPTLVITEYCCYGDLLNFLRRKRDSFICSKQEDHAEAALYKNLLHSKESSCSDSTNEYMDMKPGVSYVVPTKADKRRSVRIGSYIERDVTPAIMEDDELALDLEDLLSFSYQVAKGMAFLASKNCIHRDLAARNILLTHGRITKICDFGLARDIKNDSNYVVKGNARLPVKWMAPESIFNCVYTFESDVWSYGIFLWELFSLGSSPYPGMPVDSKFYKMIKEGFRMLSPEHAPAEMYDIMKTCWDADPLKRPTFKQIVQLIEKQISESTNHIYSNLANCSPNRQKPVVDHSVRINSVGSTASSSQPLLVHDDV
Assay: c-Kit biochemical assay, AlphaScreen, 10 μM ATP
pIC50: −log10 of the molar value.

- SMILES_REPR: "CCCCS(=O)(=O)Nc1ccc(-c2ncnc3[nH]c(C)cc23)cc1"
  pIC50: "3.70 to 5.00"

----------
# IC50 listing for each entry below
Target: c-kit mutant D816V (Homo sapiens, UniProt P10721, D816V/DEL694-753)
Construct: residues 551-934, kinase insertion domain residues 694-753 deleted; 6x-histidine (N); made in house; host or cells: E. coli Arctic Express (DE3) RIL (Stratagene)
Sequence (P10721 with tags, fused parts or gaps DEL694-753/D816V): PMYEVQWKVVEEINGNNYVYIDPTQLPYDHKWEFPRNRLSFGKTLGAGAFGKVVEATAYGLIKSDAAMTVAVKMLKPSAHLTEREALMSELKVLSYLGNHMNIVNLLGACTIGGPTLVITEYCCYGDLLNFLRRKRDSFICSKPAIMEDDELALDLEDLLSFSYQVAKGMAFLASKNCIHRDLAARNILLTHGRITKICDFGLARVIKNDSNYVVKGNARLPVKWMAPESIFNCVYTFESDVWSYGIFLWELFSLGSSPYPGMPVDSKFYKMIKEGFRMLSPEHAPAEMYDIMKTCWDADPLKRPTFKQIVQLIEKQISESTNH
Test: c-Kit mutant D816V biochemical assay, AlphaScreen
Details: c-kit D816V biochemical inhibitory activity; read-out: Biochemical activity (IC50 μM) Kit D816V
MEASURE_NAME: IC50

- COMPOUND: "O=C(NCc1ccc(F)cn1)N1CCN(c2ncnc3[nH]c(-c4cccnc4)cc23)CC1 [P-0124]"
  RESULT: "1 to 10 µM"
- COMPOUND: "C[C@H](NC(=O)N1CCN(c2ncnc3[nH]c(-c4ccc(F)cc4)cc23)CC1(C)C)c1ccc(Cl)cc1 [P-0700]"
  RESULT: "0.0001 to 1 µM"
- COMPOUND: "Cc1nn(C)cc1-c1cc2c(N3CCN(C(=O)N[C@@H](C)c4ccc(F)cc4)[C@H](C)C3)ncnc2[nH]1 [P-0715]"
  RESULT: "0.0001 to 1 µM"
- COMPOUND: "O=S(=O)(Nc1ccc(-c2cc3c(-c4ccc(NS(=O)(=O)C5CC5)cc4)ncnc3[nH]2)cc1)C1CC1 [P-0389]"
  RESULT: "0.0001 to 1 µM"
- COMPOUND: "COc1ccc([C@H](C)NC(=O)N2CCN(c3ncnc4[nH]c(-c5ccc(F)cc5)cc34)C[C@H]2C)cc1 [P-0018]"
  RESULT: "0.0001 to 1 µM"
- COMPOUND: "CNC(=O)c1cccc(-c2cc3c(N4CCN(C(=O)Nc5ccc(OC(F)(F)F)cc5)CC4)ncnc3[nH]2)c1 [P-0116]"
  RESULT: "10 to 200 µM"
- COMPOUND: "O=S(=O)(Nc1ccc(-c2ncnc3[nH]c(-c4ccc(F)cc4F)cc23)c(F)c1)C1CC1 [P-0340]"
  RESULT: "0.0001 to 1 µM"

----------
Molecular target: c-kit mutant D816V (Homo sapiens, UniProt P10721, D816V/DEL694-753)
Construct: residues 551-934, kinase insertion domain residues 694-753 deleted; 6x-histidine (N); made in house; host or cells: E. coli Arctic Express (DE3) RIL (Stratagene)
Assay: c-Kit mutant D816V biochemical assay, AlphaScreen
Settings: c-kit D816V biochemical inhibitory activity; read-out: Biochemical activity (IC50 μM) Kit D816V
Method: Compounds to be tested were dissolved in DMSO to a concentration of 20 mM. These were diluted 30 μl into 120 μl of DMSO (4 mM) and 1 μl was added to an assay plate. These were then serially diluted 1:3 (50 μl to 100 μl DMSO) for a total of 8 points. […] The samples were incubated for 60 minutes at room temperature and the signal per well was read on EnVision reader. […]

- SMILES_REPR: "O=C(NC1CCCC1)N1CCN(c2ncnc3[nH]ccc23)CC1"
  IC50: "0.0001 to 1 µM"
- SMILES_REPR: "COc1cc(-c2cc3c(N4CCC(NS(=O)(=O)c5ccc(OC(F)(F)F)cc5)CC4)ncnc3[nH]2)ccn1"
  IC50: "10 to 200 µM"
- SMILES_REPR: "C[C@H](NC(=O)N1CCN(c2ncnc3[nH]c(-c4ccc(F)cc4)cc23)CC1(C)C)c1ccc(F)cc1"
  IC50: "0.0001 to 1 µM"
- SMILES_REPR: "O=S(=O)(Nc1ccc(-c2ncnc3[nH]c(-c4ccc(F)cc4F)cc23)c(F)c1)c1ccc(F)cc1"
  IC50: "0.0001 to 1 µM"
- SMILES_REPR: "O=C(N1CC=C(c2cc3ncnc(-c4ccc(NS(=O)(=O)c5ccc(F)cc5)cc4)c3s2)CC1)N1CCOCC1"
  IC50: "0.0001 to 1 µM"
- SMILES_REPR: "O=C(NS(=O)(=O)c1ccc(Cl)cc1)N1CCN(c2ncnc3[nH]c(-c4ccc(F)cc4)cc23)CC1"
  IC50: "1 to 10 µM"
- SMILES_REPR: "[2H]C([2H])([2H])Oc1cccc([C@H](C)NC(=O)N2CCN(c3ncnc4[nH]c(-c5ccc(F)cc5)cc34)CC2)c1"
  IC50: "0.0001 to 1 µM"
- SMILES_REPR: "Cn1cc(-c2cc3c(N4CCN(c5nc6ccccc6[nH]5)CC4)ncnc3[nH]2)cn1"
  IC50: "0.0001 to 1 µM"
